Sourced from patent US12371428B2

Reported values of IC50 for individual entries
Target: KDR (phospho-KDR, VEGF165-stimulated HUVEC cells) (Homo sapiens (Human), UniProt P35968)
Sequence (P35968 20-1356): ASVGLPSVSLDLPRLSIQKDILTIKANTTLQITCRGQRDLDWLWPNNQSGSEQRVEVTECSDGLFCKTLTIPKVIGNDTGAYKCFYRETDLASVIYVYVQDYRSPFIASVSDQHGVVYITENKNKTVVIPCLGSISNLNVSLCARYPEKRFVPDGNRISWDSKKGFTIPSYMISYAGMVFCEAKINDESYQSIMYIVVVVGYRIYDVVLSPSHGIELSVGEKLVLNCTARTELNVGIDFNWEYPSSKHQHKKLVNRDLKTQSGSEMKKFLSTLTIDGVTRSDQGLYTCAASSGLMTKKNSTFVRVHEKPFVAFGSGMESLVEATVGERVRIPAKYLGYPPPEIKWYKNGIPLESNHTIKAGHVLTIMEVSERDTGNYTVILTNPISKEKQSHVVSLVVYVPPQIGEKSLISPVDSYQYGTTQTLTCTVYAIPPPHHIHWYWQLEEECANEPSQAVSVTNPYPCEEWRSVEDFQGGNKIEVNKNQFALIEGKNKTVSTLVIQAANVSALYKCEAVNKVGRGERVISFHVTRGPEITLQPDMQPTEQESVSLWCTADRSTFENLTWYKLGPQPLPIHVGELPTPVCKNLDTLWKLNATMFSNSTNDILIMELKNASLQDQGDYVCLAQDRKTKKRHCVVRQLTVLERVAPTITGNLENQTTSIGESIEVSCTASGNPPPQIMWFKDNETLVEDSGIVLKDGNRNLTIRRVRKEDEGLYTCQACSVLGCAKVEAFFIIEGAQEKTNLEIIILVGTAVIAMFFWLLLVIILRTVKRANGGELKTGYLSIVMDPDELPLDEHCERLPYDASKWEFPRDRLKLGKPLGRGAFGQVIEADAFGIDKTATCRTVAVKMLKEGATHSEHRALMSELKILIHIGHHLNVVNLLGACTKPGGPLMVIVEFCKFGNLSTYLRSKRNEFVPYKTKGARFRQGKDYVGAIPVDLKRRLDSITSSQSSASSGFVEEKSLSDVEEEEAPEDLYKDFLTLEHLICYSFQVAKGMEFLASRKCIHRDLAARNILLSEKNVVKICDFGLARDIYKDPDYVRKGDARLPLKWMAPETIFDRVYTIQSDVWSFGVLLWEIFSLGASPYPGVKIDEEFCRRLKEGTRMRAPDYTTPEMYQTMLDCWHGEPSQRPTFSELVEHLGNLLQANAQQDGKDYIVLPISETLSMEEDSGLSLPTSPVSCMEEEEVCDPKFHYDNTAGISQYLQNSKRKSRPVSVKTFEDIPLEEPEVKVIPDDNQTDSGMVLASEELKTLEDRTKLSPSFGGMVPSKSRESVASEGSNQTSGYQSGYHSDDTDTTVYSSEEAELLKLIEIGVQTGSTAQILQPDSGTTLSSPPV
Assay: KDR autophosphorylation ELISA in HUVEC cells (Example G)
Format: cell-based
Settings: cellular activity; KDR autophosphorylation ELISA in HUVEC cells
Experimental: Human umbilical vein endothelial cells or HUVEC (Lonza #C2519A) were seeded at 2×10^4 cells/well onto 96-well plates (Corning #3904), in EGM-2 growth medium (Lonza #CC-3162) containing 1% Penicillin Streptomycin (Thermo Fisher #15140-122). […] IC50 values were calculated by nonlinear regression analysis using a 4-parameter logistic curve fit in ActivityBase XE (IDBS).
Structures can show the parent of a compound that is named as a salt.

Before answering, review these 6 worked examples.
COc1cnc2c(Oc3ccc(NC(=O)c4ncc(C)n(-c5ccc(F)cc5)c4=O)cc3F)ccnc2c1 [Compound 94]	> 300 nM
COc1cc2nccc(Oc3ccc(NC(=O)c4cn(C5CC5)c(C)c(-c5ccc(F)cc5C)c4=O)cc3)c2nc1OC [Compound 440]	> 300 nM
COC(=O)c1cnc2c(Oc3ccc(NC(=O)c4cnc(C)c(-c5ccc(F)cc5)c4O)cc3F)ccnc2c1 [Compound 138]	100 to 300 nM
COCc1nc(C)c(-c2ccc(F)cc2C)c(O)c1C(=O)Nc1ccc(Oc2ccnc3ccc(OC)nc23)cc1 [Compound 516]	100 to 300 nM
COc1cc2nccc(Oc3ccc(NC(=O)c4c(CO)nc(C)c(-c5ccc(F)cc5)c4O)cc3F)c2nc1OC [Compound 652]	< 100 nM
COc1cc2nccc(Oc3ccc(NC(=O)c4cnc(C)c(-c5ccc(F)cc5)c4O)cc3F)c2nc1OC [Compound 28]	< 100 nM

Input line: # lookup: IC50 of COCCOc1cc2nccc(Oc3ccc(NC(=O)c4c(C)cc(C)n(-c5ccc(F)cc5)c4=O)cc3F)c2nc1OC [Compound 485]
Output line: < 100 nM

Input line: Requested field: IC50. Item: COc1cc2nccc(Oc3ccc(NC(=O)c4nn(C)c(C)c(-c5ccc(F)cc5C)c4=O)cc3)c2nc1OC [Compound 517]
Output line: < 100 nM

Input line: Look up IC50: CCn1cc(C(=O)Nc2ccc(Oc3ccnc4cc(OC)ccc34)c(F)c2)c(=O)c(-c2ccc(F)cc2)c1C [Compound 107]
Output line: 100 to 300 nM

Input line: Bench note: what IC50 did COc1cnc2c(Oc3ccc(NC(=O)c4n[nH]c(C)c(-c5ccc(F)cc5C)c4=O)cc3)ccnc2c1 [Compound 248] show?
Output line: > 300 nM

Input line: # query: IC50 of entry COc1cc2nccc(Oc3ccc(NC(=O)c4c(C)n(CC(F)F)cc(-c5ccc(F)cc5C)c4=O)cc3F)c2nc1OC [Compound 786]
Output line: < 100 nM

Input line: # input compound: COCc1nc(C)c(-c2ccc(F)cc2)c(OC)c1C(=O)Nc1ccc(Oc2ccnc3cc(OC)c(OC)nc23)c(F)c1 [Compound 663] ; wanted: its IC50
Output line: > 300 nM

Input line: # input compound: COCCOc1cc2nccc(Oc3ccc(NC(=O)c4ccc(C)n(-c5ccc(F)cc5)c4=O)cc3F)c2nc1OC [Compound 484] ; wanted: its IC50
Output line: < 100 nM

Input line: Recorded IC50 for COc1nc2c(Oc3ccc(NC(=O)c4cn(C(C)C)c(C)c(-c5ccc(F)cc5)c4=O)cc3F)ccnc2cc1-c1cccnc1 [Compound 606, hydrochloride] , please?
Output line: 100 to 300 nM

---

Molecular target: KDR (phospho-KDR, VEGF165-stimulated HUVEC cells) (Homo sapiens (Human))
Assay: KDR autophosphorylation ELISA in HUVEC cells (Example G)
Type: cell-based
Details: cellular activity; KDR autophosphorylation ELISA in HUVEC cells
Structures can show the parent of a compound that is named as a salt.
EXPERIMENTAL READOUT: IC50

Input line: // IC50 lookup, key: `COc1cc2nccc(Oc3ccc(NC(=O)c4cn(C)c(CO)c(-c5ccc(F)cc5)c4=O)cc3F)c2nc1OC`
Output line: 100 to 300 nM

Input line: Name the recorded IC50 for `COc1cc2nccc(Oc3ccc(NC(=O)c4cn(C5CCCC5)c(C)c(-c5ccc(F)c(Cl)c5)c4=O)cc3F)c2nc1OC` .
Output line: < 100 nM

Input line: Returns the measured IC50 for the input compound. Input: `COc1cc2nccc(Oc3ccc(NC(=O)c4c(C)c(C(N)=O)c(C)n(-c5ccc(F)cc5)c4=O)cc3F)c2nc1OC`
Output line: > 300 nM

Input line: Bench note: what IC50 did `COc1cnc2c(Oc3cc(F)c(NC(=O)c4c(C)nc(C)c(-c5ccc(F)cc5C)c4O)cc3F)ccnc2c1` show?
Output line: < 100 nM

Input line: What value of IC50 has been reported for the following compound? `COCCOc1nc2c(Oc3ccc(NC(=O)c4c(COC)nc(C)c(-c5ccc(F)cc5C)c4O)cc3F)ccnc2cc1OC`
Output line: < 100 nM

Input line: Please report the recorded IC50 for `COc1cnc2c(Oc3ccc(NC(=O)c4cnc(C)c(-c5ccc(F)cc5)c4O)cc3F)ccnc2c1` .
Output line: < 100 nM

Input line: Which IC50 is listed for `COc1cc2nccc(Oc3ccc(NC(=O)c4cc(C(C)=O)cn(-c5ccc(F)cc5)c4=O)cc3)c2nc1OC` ?
Output line: > 300 nM

Input line: Which IC50 value is on record for `COc1cc2nccc(Oc3ccc(NC(=O)c4cnc(C)c(-c5ccc(F)cc5)c4O)cc3F)c2cc1OC` ?
Output line: < 100 nM

Input line: For the compound `COc1cc2nccc(Oc3ccc(NC(=O)c4c(C)ncc(-c5ccc(F)cc5)c4O)cc3F)c2nc1OC` , what IC50 is on record?
Output line: < 100 nM

Input line: For the compound shown here, COc1nc2c(Oc3ccc(NC(=O)c4cn(C(C)C)cc(-c5ccc(F)cc5)c4=O)cc3F)ccnc2cc1-c1cccnc1 [Compound 605, hydrochloride] , give the reported IC50.
Output line: 100 to 300 nM

Input line: Looking for the measured IC50 of `COc1cc2nccc(Oc3ccc(NC(=O)c4c(C)c(C(C)=O)c(C)n(-c5ccc(F)cc5)c4=O)cc3F)c2nc1OC` , can you help?
Output line: 100 to 300 nM

Input line: Any idea what its IC50 is? The compound is `COc1ccc2nccc(Oc3ccc(NC(=O)c4c(C)nc(C)c(-c5ccc(F)cc5)c4O)cc3F)c2c1`
Output line: < 100 nM

Input line: For the compound shown here, `COc1ccc2nccc(Oc3ccc(NC(=O)c4n[nH]c(C)c(-c5ccc(F)cc5C)c4=O)cc3F)c2n1` , give the reported IC50.
Output line: 100 to 300 nM

Input line: Given the compound `COCCOc1ccc2nccc(Oc3ccc(NC(=O)c4ccc(C)n(-c5ccc(F)cc5)c4=O)cc3F)c2n1` , what is its reported IC50?
Output line: < 100 nM

---

Target: KDR (phospho-KDR, VEGF165-stimulated HUVEC cells) (Homo sapiens (Human), UniProt P35968)
Assay: KDR autophosphorylation ELISA in HUVEC cells (Example G)
Type: cell-based
Details: cellular activity; KDR autophosphorylation ELISA in HUVEC cells
pIC50: −log10 of the molar value.
Measured pIC50, listed per entry for reference.

# example entries with known answers
COc1cc2nccc(Oc3ccc(NC(=O)c4cn(C)c(C5CC5)c(-c5ccc(F)cc5)c4=O)cc3F)c2nc1OC [Compound 728]	6.52 to 7.00
COc1cc2nccc(Oc3ccc(NC(=O)c4cn(C5(C)COC5)cc(-c5ccc(F)cc5)c4=O)cc3F)c2nc1OC [Compound 54]	< 6.52
COc1cc2nccc(Oc3ccc(NC(=O)c4cnc(C)c(-c5ccc(F)cc5F)c4O)cc3F)c2nc1OC [Compound 395]	> 7.00
COc1cc2nccc(Oc3ccc(NC(=O)c4nccn(-c5ccc(F)cc5)c4=O)cc3F)c2nc1OC [Compound 379]	> 7.00
COc1cc2nccc(Oc3ccc(NC(=O)c4cn(C5CCCC5)c(C)c(-c5ccc(F)cc5)c4=O)cc3F)c2nc1OC [Compound 26]	> 7.00

Input line: Which value of pIC50 has been reported for COCCOc1cc2ncnc(Oc3ccc(NC(=O)c4ccc(C)n(-c5ccc(F)cc5)c4=O)cc3F)c2nc1OC [Compound 638] in the records?
Output line: > 7.00

Input line: Consider the compound COc1cc2nccc(Oc3ccc(NC(=O)c4nccn(-c5ccc(F)cc5)c4=O)cc3)c2nc1OC [Compound 384] and give its measured pIC50.
Output line: > 7.00

Input line: // returns reported pIC50 for input Cc1nc2c(Oc3ccc(NC(=O)c4cn(C(C)C)c(C)c(-c5ccc(F)cc5)c4=O)cc3F)ccnc2cc1Br [Compound 153]
Output line: < 6.52

Input line: Sample COc1cc2c(Oc3ccc(NC(=O)c4cnc(C)c(-c5ccc(F)cc5)c4O)cc3)ccnc2cn1 [Compound 644] — what was its pIC50?
Output line: > 7.00

Input line: Query: pIC50; subject: COc1cc2nccc(Oc3ccc(NC(=O)c4cn(C)cc(-c5ccc(F)cc5C)c4=O)cc3F)c2nc1OC [Compound 503]
Output line: > 7.00

Input line: Given COc1cc2nccc(Oc3ccc(NC(=O)c4cn(CC(F)F)c(C)c(-c5ccc(F)cc5C)c4=O)cc3)c2nc1OC [Compound 722] , state its recorded pIC50.
Output line: < 6.52
